biological target: Ribonucleoside-diphosphate reductase RR1 (Homo sapiens) (UniProt P23921+Q7LG56+P31350); test: Apparent enzyme activity measured as the ratio of HSV-1 and human enzyme inhibition induces; type: functional; settings: Human alphaherpesvirus 1
measured parameter: Apparent selectivity (HSV-1/human inhibition index ratio)
Lab note: record just the number, no unit beside it.

In the examples that follow, each entry is paired with its recorded Apparent selectivity (HSV-1/human inhibition index ratio).
> print(dat)
                            molecule.smiles  observed.measurement
1  C/C(=N\N=C(/S)N/N=C(\S)Nc1ccc(Br)cc1)c1ccccn1                    18
2  COc1c(Cl)cccc1/N=C(\S)N/N=C(\S)N/N=C(\C)c1ccccn1                    26
3  C/C(=N\N=C(/S)N/N=C(\S)NCCN1CCOCC1)c1ccccn1                    15
4  C/C(=N\N=C(/S)N/N=C(\S)Nc1ccc(C)cc1)c1ccccn1                     3
5  CCOC(=O)NC(=S)N/N=C(\S)N/N=C(\C)c1ccccn1                   1.8

Could you now consider this next compound?
Sample C/C(=N\N=C(/S)N/N=C(\S)Nc1cccnc1)c1ccccn1 ; Apparent selectivity (HSV-1/human inhibition index ratio) observed: 15
